test system: Sonic hedgehog protein (Shh); test: small-molecule binders of Shh protein, primary screen, biochemical, small-molecule microarray, 635/667 nm fluorescence (AID 1151); conditions: small-molecule microarray binding, 635 nm fluorescence; higher = more signal;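 also: Shh protein binding to compounds spotted on small-molecule microarray slides; score combines spot fluorescence intensity with signal-to-noise across triplicate slides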
Listed here are molecules together with their documented composite z-score.
assay-readout: composite z-score

input_smiles=CCc1cccc(NC(=O)O[C@H]2[C@H](OC(=O)Nc3ccccc3)[C@H](OC(=O)Nc3ccccc3)[C@@H](OC)O[C@@H]2CO)c1 assay_target="Sonic hedgehog protein (Shh)" assay_readout="composite z-score" endpoint_value=0.0653
input_smiles=CCCCC(=C=CC[C@H](O)c1ccc(OCCO)cc1)C[C@H](O)c1cc(Cl)cc(Cl)c1O assay_target="Sonic hedgehog protein (Shh)" assay_readout="composite z-score" endpoint_value=0.646
input_smiles=COCC(=C=CC[C@H](O)c1cccc(OCCO)c1)C[C@H](O)COCc1ccccc1 assay_target="Sonic hedgehog protein (Shh)" assay_readout="composite z-score" endpoint_value=1.28
input_smiles=C=CCN1C(=O)[C@]2(O[C@H](CCO)[C@@H]([Si](C)(C)c3ccc(OC)cc3)[C@@H]2C)c2cc(N3C(=O)COc4ccccc43)ccc21 assay_target="Sonic hedgehog protein (Shh)" assay_readout="composite z-score" endpoint_value=1.18

* * *

target: Left-right determination factor 2 (Homo sapiens); assay: LEFTY2 binders on small-molecule microarrays, primary screen, biochemical, small-molecule microarray, 635 nm fluorescence scan (AID 1110); details: LEFTY2 binding, higher = more signal
composite z-score below 0.06 gives condition not met; composite z-score at or above it gives condition met.

compound="O=C1C2C=CC(C(O)C=Cc3ccc([N+](=O)[O-])cc3)N(Nc3ccccc3)C2C(=O)N1c1ccccc1 (centres undefined)" group="condition met"
compound=COCCOC(=O)N1C(=O)[C@@]2(c3cc(C#CCCO)ccc31)[C@H](c1ccccc1OCCO)N1[C@H](c3ccccc3)[C@H](c3ccccc3)OC(=O)[C@H]1[C@@H]2C(=O)N1CCCCCCC1 group="condition met"
compound="CC1CC/C=C\\[C@H]2OC34C=CCN(C(C)(C)C)C(=O)[C@H]3N(C(CO)C(C)C)C(=O)[C@@H]4C2C(=O)O1 (some centres undefined)" group="condition met"
compound=COCC(=C=CC[C@@H](O)c1ccc(OCCO)cc1)CCO group="condition not met"
compound=C=CCN1C(=O)[C@@]2(O[C@@H](CCO)[C@H]([Si](C)(C)c3ccc(OC)cc3)[C@H]2C)c2cc(N3CCOC3=O)ccc21 group="condition not met"
compound=O=C1O[C@H](c2ccccc2)[C@H](c2ccccc2)N2[C@H]1[C@@H](C(=O)N1CCCCCCC1)[C@]1(C(=O)Nc3ccc(C#CC4(O)CCCCCC4)cc31)[C@H]2c1ccc(O)cc1 group="condition met"
compound="COc1cc(NN2C(C(O)C3CCCCC3)C=CC3C(=O)N(c4ccccc4)C(=O)C32)cc(OC)c1OC (centres undefined)" group="condition not met"
compound=CC(C)(C)OC(=O)CC[C@]1(C(=O)N2CCCCC2)COC(c2ccc(OCCCO)cc2)=N1 group="condition met"
compound=COc1ccc(C#Cc2ccc3c(c2)[C@]2(C(=O)N3)[C@H](C(=O)N3CCCCCCC3)[C@H]3C(=O)O[C@H](c4ccccc4)[C@H](c4ccccc4)N3[C@@H]2c2ccc(O)cc2)cc1 group="condition met"
compound=COC(=O)[C@@]1(Cc2ccc(OC)cc2)[C@H]2c3cc(C(=O)N4CCCC4)n(Cc4ccc(OC(F)(F)F)cc4)c3C[C@H]2CN1C(=O)c1ccccc1 group="condition not met"
compound=C=C[C@@H](C)[C@@H](OC(=O)Nc1ccc(SC)cc1)c1ccc(OCCO)cc1 group="condition not met"
compound=CCOC(=O)C[C@H]1[C@H](OC(=O)c2ccccc2-c2ccccc2)[C@@H](NC(=O)c2ccccc2)c2cc(OCCCO)ccc2N1C(=O)c1ccccc1 group="condition met"
compound=COC(=O)[C@@]1(Cc2ccccc2CN=[N+]=[N-])N=C(c2ccc(OCCCO)cc2)O[C@H]1c1ccccc1 group="condition not met"
compound=O=C1O[C@H](c2ccccc2)[C@H](c2ccccc2)N2[C@H]1[C@@H](C(=O)Nc1nc3ccccc3s1)[C@]1(C(=O)Nc3ccc(C#CC4=CCCCC4)cc31)[C@H]2c1ccc(O)cc1 group="condition not met"

* * *

assay: modulators of S6 phosphorylation in cells, primary screen, cell-based, A549, cytoblot, luminescence, serum-stimulated (AID 1158); details: A549 phospho-S6 cytoblot, 5 h, higher = more signal;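 also: serum-stimulated A549 lung adenocarcinoma cells; signal is phosphorylated S6 detected by cytoblot immunostaining with HRP secondary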
Reported z-score is given for each of the following compounds.
assay-readout: z-score

compound=CN1C(=O)[C@@H]2[C@@H](CC(COc3ccccc3)=C([C@H](O)CCc3ccccc3)[C@@H]2CO)C1=O assay_readout=z-score endpoint_value=0.867
compound=COC(=O)C(CC#Cc1ccc2c(c1)[C@]1(C(=O)N2)[C@H](c2ccc(O)cc2)N2[C@H](c3ccccc3)[C@H](c3ccccc3)OC(=O)[C@H]2[C@@H]1C(=O)N1CCCCCCC1)C(=O)OC assay_readout=z-score endpoint_value=3.01
compound=C=C(COC)/C(=C/C[C@@H](OC(C)=O)c1ccc(CO)o1)c1cc(C(=O)OC)ccc1OC assay_readout=z-score endpoint_value=0.187
compound=CN(C)C(=O)[C@@]1(Cc2ccccc2N=[N+]=[N-])N=C(c2ccc(OCCCO)cc2)O[C@H]1c1ccccc1 assay_readout=z-score endpoint_value=-0.482
compound=COC(=O)[C@@]1(Cc2ccccc2)[C@H]2c3cc(C(=O)N4CCCC4)n(CCSCCO)c3C[C@H]2CN1C(=O)c1ccccc1 assay_readout=z-score endpoint_value=-0.653
compound="O=C(NCC(O)CO)[C@@]1(CCS(=O)(=O)c2ccccc2)COC(c2ccc(OCCCO)cc2)=N1 (stereo partly drawn)" assay_readout=z-score endpoint_value=-0.245
compound=CCOC(=O)C=Cc1ccccc1O assay_readout=z-score endpoint_value=1.47
compound="C=CCC(OC(C)=O)[C@@H]1[C@@H](N(Cc2cc3ccccc3o2)C(=O)c2ccc(-c3ccccc3)cc2)c2cc(OCCCO)ccc2N1C(=O)Cc1ccc(OC)cc1 (stereo partly drawn)" assay_readout=z-score endpoint_value=0.3

* * *

assay: small-molecule microarray binders of probe aLefty2, primary screen, biochemical, biotinylated probe, 635/667 nm fluorescence (AID 1094); conditions: higher = more signal;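 also: score merges spot fluorescence near 667 nm with spot signal-to-noise ratio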
assay-readout: composite z-score

molecule=CC(C)C(=C=CC[C@@H](O)c1cccc(OCCO)c1)C[C@@H](O)COCc1ccccc1 assay_readout="composite z-score" endpoint_value=-0.133
molecule="CCCCCCCCCCC(O)C1C=CC2C(=O)N(C)C(=O)C2N1Nc1cc(OC)c(OC)c(OC)c1 (centres undefined)" assay_readout="composite z-score" endpoint_value=-0.161
molecule=CC(C)CNC(=O)[C@@]1(C)c2ccccc2C(=O)N(Cc2cc(C(F)(F)F)cc(C(F)(F)F)c2)[C@H]1c1ccc(CO)cc1 assay_readout="composite z-score" endpoint_value=0.0481
molecule=C=C(CCCC)C(=O)CC[C@@H](OC(=O)c1cccnc1)c1ccc(OCCO)cc1 assay_readout="composite z-score" endpoint_value=-0.113

* * *

test: small-molecule microarray binders of probe aLefty2, primary screen, biochemical, biotinylated probe, 635/667 nm fluorescence (AID 1094); settings: higher = more signal;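 also: score merges spot fluorescence near 667 nm with spot signal-to-noise ratio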
assay-readout: composite z-score

molecule=CC(C)C[C@@H]1NC(=O)[C@H]2C[C@@H](C(=O)NCCCCCN)[C@@H](c3cccc(OCCO)c3)N2C1=O endpoint_value=0.13
molecule="C=CCC(OC(C)=O)[C@@H]1[C@@H](N(Cc2ccc(-c3cccc(C(F)(F)F)c3)o2)C(=O)c2cccc3ccccc23)c2cc(OCCCO)ccc2N1C(=O)Cc1ccc(OC)cc1 (stereo not given in full)" endpoint_value=0.0054
molecule=O=C1C[C@@](C(=O)NCC(F)(F)F)(c2ccc([N+](=O)[O-])cc2)[C@@H](c2ccc(CO)cc2)N1CC12CC3CC(CC(C3)C1)C2 endpoint_value=0.426
molecule=O=C(N1CCOCC1)[C@@]1(CCS(=O)(=O)c2ccccc2)N=C(c2ccc(OCCCO)cc2)O[C@H]1c1ccccc1 endpoint_value=0.352
molecule=COc1ccc([Si](C)(C)[C@@H]2[C@@H](CC(=O)N3Cc4ccccc4C[C@H]3CO)O[C@]3(C(=O)N(Cc4ccc(N5CCC5=O)cc4)c4ccccc43)[C@H]2C)cc1 endpoint_value=-0.0945

* * *

target: NADPH oxidase 2 (Homo sapiens) (UniProt P04839); assay: NOX2-dependent H2O2 signal modulators, primary screen, NOX inhibitor project, cell-based, HEK293-NOX2, PMA-stimulated, Amplex Red fluorescence (AID 1159); conditions: 45 min, higher = more signal, called active from +8 up or from −8 down; also: test concentration not given here
Sequence (P04839 whole entry, looked up): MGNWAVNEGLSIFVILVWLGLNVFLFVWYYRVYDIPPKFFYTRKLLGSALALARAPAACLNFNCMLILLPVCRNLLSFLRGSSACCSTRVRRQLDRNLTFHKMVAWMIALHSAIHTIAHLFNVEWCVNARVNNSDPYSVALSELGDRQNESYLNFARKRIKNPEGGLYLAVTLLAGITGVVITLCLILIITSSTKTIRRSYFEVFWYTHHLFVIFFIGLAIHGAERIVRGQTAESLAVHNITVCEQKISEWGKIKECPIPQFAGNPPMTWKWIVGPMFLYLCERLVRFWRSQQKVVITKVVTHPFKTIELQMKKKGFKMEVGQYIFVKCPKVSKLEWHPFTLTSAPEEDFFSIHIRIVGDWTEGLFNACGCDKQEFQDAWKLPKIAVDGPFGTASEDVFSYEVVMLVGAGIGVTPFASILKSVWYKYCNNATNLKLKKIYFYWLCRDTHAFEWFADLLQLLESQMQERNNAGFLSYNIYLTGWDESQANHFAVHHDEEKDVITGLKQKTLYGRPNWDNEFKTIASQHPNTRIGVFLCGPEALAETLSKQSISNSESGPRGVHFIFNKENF
The source made the active and inactive calls.
assay-readout: z-score

compound="CC1CC/C=C\\[C@H]2OC34C=CCN(C(C)(C)C)C(=O)[C@H]3N(C(CO)C(C)C)C(=O)[C@@H]4C2C(=O)O1 (some centres not stated)" assay_readout=z-score endpoint_value="1.31 (inactive)"
compound=NC(=O)[C@H]1[C@@H]2C(=O)O[C@@H](c3ccccc3)[C@@H](c3ccccc3)N2[C@@H](c2ccc(O)cc2)[C@]12C(=O)Nc1ccc(C#CC3=CCCCC3)cc12 assay_readout=z-score endpoint_value="1.18 (inactive)"
compound=CCOC(=O)C1=CC[C@@H](c2ccccc2)N(S(=O)(=O)c2ccc(C)cc2)[C@H]1c1cccc(OC)c1 assay_readout=z-score endpoint_value="0.537 (inactive)"
compound=COCCOC(=O)N1C(=O)[C@@]2(c3cc(C#CCNC(N)=O)ccc31)[C@H](c1ccc(OCCO)cc1)N1[C@H](c3ccccc3)[C@H](c3ccccc3)OC(=O)[C@H]1[C@@H]2C(=O)NC[C@H](O)c1ccccc1 assay_readout=z-score endpoint_value="2.22 (inactive)"
compound=COCCCNC(=O)[C@@]1(c2ccc([N+](=O)[O-])cc2)CC(=O)N(C(C)C)[C@@H]1c1ccc(CO)cc1 assay_readout=z-score endpoint_value="-0.635 (inactive)"
compound=CN1C(=O)[C@@]2(Cc3ccccc3)N=C(c3ccc(OCCCO)cc3)O[C@H]2c2ccccc21 assay_readout=z-score endpoint_value="-1.74 (inactive)"
compound=O=C1c2ccccc2[C@](Cc2ccccc2I)(C(=O)NC2CC2)[C@H](c2ccc(CO)cc2)N1Cc1ccccc1C(F)(F)F assay_readout=z-score endpoint_value="0.459 (inactive)"
